biological target: recombinant human PAI-1 (Homo sapiens, UniProt P05121); assay: biochemical; settings: read-out: Inhibition Rate of PAI-1 Activity (%)
Sequence (P05121 24-402): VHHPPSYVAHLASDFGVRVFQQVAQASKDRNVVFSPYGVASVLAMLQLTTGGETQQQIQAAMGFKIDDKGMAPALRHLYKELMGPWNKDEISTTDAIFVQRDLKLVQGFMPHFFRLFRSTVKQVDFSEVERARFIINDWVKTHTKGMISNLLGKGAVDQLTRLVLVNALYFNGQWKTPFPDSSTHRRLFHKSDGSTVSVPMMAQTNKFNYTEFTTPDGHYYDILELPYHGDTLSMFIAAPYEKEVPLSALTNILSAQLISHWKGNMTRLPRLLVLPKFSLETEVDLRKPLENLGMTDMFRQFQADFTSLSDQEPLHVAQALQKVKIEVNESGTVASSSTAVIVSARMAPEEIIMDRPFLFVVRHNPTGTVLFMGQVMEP
parameter.measured: inhibition at 25 µM (%)

smiles.structure | parameter.measured | unit.annotation | value.observed
CCCCCOc1ccc(-c2ccc(OC(F)(F)F)cc2)cc1N(Cc1ccccc1)C(=O)C(=O)O | inhibition at 25 µM | % | 93
CC(C)(C)c1ccc(Oc2cc(Oc3ccc(OC(F)(F)F)cc3)ccc2CCC(=O)O)cc1 | inhibition at 25 µM | % | 96
CC(C)(C)c1ccc(COc2ccc(-c3ccc(OC(F)(F)F)cc3)cc2OCc2nn[nH]n2)cc1 | inhibition at 25 µM | % | 99
CC(C)(C)CN(C(=O)C(=O)O)c1ccc(-c2ccc(OC(F)(F)F)cc2)cc1 | inhibition at 25 µM | % | 23

* * *

biological target: recombinant human PAI-1 (Homo sapiens); test: Test Example 2: Human PAI-1 Inhibitory Activity (pH 7.4 HEPES buffer, 10 minutes incubation with two-chain tPA); type: biochemical; set-up: purchased Molecular Innovations, Inc; settings: read-out: Inhibition Rate of PAI-1 Activity (%)

compound | cmp | inhibition at 3 µM, %
CC(C)(C)[C@H]1CC[C@@H](N(C(=O)C(=O)O)c2ccc(-c3ccc(OC(F)(F)F)cc3)cc2)CC1 | = | 98
CCCCC(Oc1cc(-c2ccc(OC(F)(F)F)cc2)ccc1OCc1ccc(C(C)(C)C)cc1)C(=O)O (stereo not shown) | = | 93
O=C(O)C(=O)N(CCCCc1ccccc1)c1cc(-c2ccc(OC(F)(F)F)cc2)ccc1OC1C2CC3CC(C2)CC1C3 (stereo not shown) | = | 92
CC(C)(C)c1ccc(Sc2cc(-c3ccc(OC(F)(F)F)cc3)ccc2C(=O)C(=O)O)cc1 | > | 99

* * *

Target: recombinant human PAI-1 (Homo sapiens, UniProt P05121)
Assay: Test Example 2: Human PAI-1 Inhibitory Activity (pH 7.4 HEPES buffer, 10 minutes incubation with two-chain tPA)
Format: biochemical
Parameters: purchased Molecular Innovations, Inc
Conditions: read-out: Inhibition Rate of PAI-1 Activity (%)
Experimental: 0.1 M HEPES, 0.1 M NaCl. 1 mM EDTA. 0.1 % Polyethylene glycol 8,000 (Hampton Research Corporation), 2 mM Dimethyldecylphoshine oxide [Apo-10] (Fluka Corporation)
Form field: inhibition at 3 µM (one value per entry).

smiles.structure | system.under.test | inhibition at 3 µM
CC(C)(C)c1cccc(Oc2cc(-c3cccc(OC(F)(F)F)c3)ccc2/C=C/C(=O)O)c1 | recombinant human PAI-1 (Homo sapiens, UniProt P05121) | > 99%
CCN(CC)c1ccc(N(Cc2ccc(C(C)(C)C)cc2)C(=O)C(=O)O)c(-c2ccc(OC(F)(F)F)cc2)c1 | recombinant human PAI-1 (Homo sapiens, UniProt P05121) | 99%
O=C(O)C(=O)N(CCCCc1ccccc1)c1ccc(N2CCSCC2)c(-c2ccc(OC(F)(F)F)cc2)c1 | recombinant human PAI-1 (Homo sapiens, UniProt P05121) | > 99%
CC(C)(C)c1ccc(CN(C(=O)C(=O)O)c2cc(-c3ccc(OC(F)(F)F)cc3)cc(C(F)(F)F)c2)cc1 | recombinant human PAI-1 (Homo sapiens, UniProt P05121) | 97%

* * *

target: recombinant rat PAI-1 (Rattus norvegicus); test: biochemical; conditions: read-out: Inhibition Rate of PAI-1 Activity (%)
Sequence (P20961 24-402): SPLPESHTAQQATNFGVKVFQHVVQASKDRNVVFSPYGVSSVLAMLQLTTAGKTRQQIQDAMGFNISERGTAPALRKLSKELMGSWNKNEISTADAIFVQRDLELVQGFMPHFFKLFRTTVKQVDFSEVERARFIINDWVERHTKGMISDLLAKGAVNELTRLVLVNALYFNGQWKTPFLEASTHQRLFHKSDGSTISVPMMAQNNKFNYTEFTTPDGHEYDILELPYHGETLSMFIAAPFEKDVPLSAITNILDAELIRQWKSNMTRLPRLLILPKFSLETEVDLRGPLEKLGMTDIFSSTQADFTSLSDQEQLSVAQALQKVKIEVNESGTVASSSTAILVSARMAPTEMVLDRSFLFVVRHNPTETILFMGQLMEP
parameter.measured: inhibition at 3 µM (%)

compound | system.under.test | value.observed
CC(C)(C)c1ccc(Oc2ccc(Oc3ccc(OC(F)(F)F)cc3)cc2CCC(=O)O)cc1 [Compound 100] | recombinant rat PAI-1 (Rattus norvegicus) | 70
CC(C)(C)c1ccc(CN(C(=O)C(=O)O)c2ccc(-c3ccc(OC(F)(F)F)cc3)cc2)cc1 [Compound 129] | recombinant rat PAI-1 (Rattus norvegicus) | 46
CC(C)(C)c1ccc(CN(C(=O)C(=O)O)c2ccc(OCc3ccccc3)c(-c3ccc(OC(F)(F)F)cc3)c2)cc1 [Compound 212] | recombinant rat PAI-1 (Rattus norvegicus) | 73
CCC(CC)Oc1ccc(N(Cc2ccc(C(C)(C)C)cc2)C(=O)C(=O)O)cc1-c1ccc(OC(F)(F)F)cc1 [Compound 197] | recombinant rat PAI-1 (Rattus norvegicus) | 84
CC(C)(C)c1ccc(CN(C(=O)C(=O)O)c2ccc(Oc3ccc(OC(F)(F)F)cc3)cc2C(F)(F)F)cc1 [Compound 174] | recombinant rat PAI-1 (Rattus norvegicus) | 76
Cc1ccc(N(Cc2ccc(C(C)(C)C)cc2)C(=O)C(=O)O)cc1-c1ccc(OC(F)(F)F)cc1 [Compound 176] | recombinant rat PAI-1 (Rattus norvegicus) | 71
CC(C)(C)c1ccc(COc2ccc(-c3ccc(OC(F)(F)F)cc3)cc2OCC(=O)O)cc1 [Compound 105] | recombinant rat PAI-1 (Rattus norvegicus) | 74
